assay: chemical genetic growth profiling, strain panel (AID 1159580);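 note: tested at 20 µM; growth read once vehicle control cultures reached saturation at 30 °C; 1 = growth at the plate median or of vehicle wells; lower values mean less growth of the strain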; details: S. cerevisiae deletion strains, growth OD, locus YLR027C, strain aat2, hits give low values
In all, about 5,500 compounds went through this assay and about 2,000 (36%) were called active. Roughly 18% stayed inconclusive and do not appear here. The list shows a part of the results. *1 amine or outer side, *2 acyl side, *3 side chain or, on linkers, in order; H or OH if unused. Where a SMILES comes first, the peptide text is derived from it. Bridges are numbered along the chain shown (N, C = ends). [ ]: non-standard residue; d: D form. The star is where a group is joined. ξ: configuration not given here. ΔAla(E,3-NHCONH2) = NC(=O)N/C=C(/N)C(=O)O; X2 = NC1=NCCC(C(N[*:1])C(=O)[*:2])N1; Octanoyl(6-Me) = CCC(C)CCCCC(=O)*; ξβ3hOrn = NCCCC(N)CC(=O)*; Dab = NCC[CH](N)C(=O)O; Dap = NC[CH](N)C(=O)O
experimentalReadout: normalized growth
Please reply with the number alone, leaving off any unit.

Reference set, count: 5
| compound | normalized growth |
| --- | --- |
| NCCNCCNCCN | 1 |
| NC(N)=NC(N)=Nc1ccccc1 | 1 |
| CNS(=O)(=O)c1ccc(NC(=O)c2ccccc2C(=O)O)cc1 | 1 |
| O=C(O)c1cc(=O)c2c(Cl)cc(Cl)cc2[nH]1 | 1.01 |
| Cc1cc(C(C)(C)C)c(O)c(C)c1CC1=NCCN1 | 1 |

Return reported normalized growth; argument: CCC(C)CCCCC(=O)NC(CCN)C(=O)NC(C(=O)NC(CCN)C(=O)NC1CCNC(=O)C(C(C)O)NC(=O)C(CCN)NC(=O)C(CCN)NC(=O)C(CC(C)C)NC(=O)C(Cc2ccccc2)NC(=O)C(CCN)NC1=O)C(C)O (stereo not drawn) ({Octanoyl(6-Me)}-[Dab]T[Dab][Dab][Dab]FL[Dab][Dab]T; lactam 4-C; configuration not given here)
0.988

Now try `O=C(NC1CCCCC1)NC1CCCCC1` .
0.991

Now give it for NCCCC(N)CC(=O)NCC1NC(=O)C(CO)NC(=O)C(N)CNC(=O)C(C2CCN=C(N)N2)NC(=O)/C(=C\NC(N)=O)NC1=O (stereo not drawn) (H-[Dap]S[Dap](ξβ3hOrn)[ΔAla(E,3-NHCONH2)][X2]; lactam 1-C; configuration not given here) too.
1.05
